tested on: MV4-11; design: species or system AML cell lines (8); Primary HTS, single concentration about 10 uM, Cell Titer Glo viability; log10 luminescence, per cent inhibition relative to cycloheximide control; conditions: 72 h, relative to cycloheximide control, log10 luminescence; inhibitor
quantity_kind: MV4-11 %inh (%)
Please give a number only; it is taken to be in %.

Q: Recorded MV4-11 %inh of O=C1OC(=O)C(c2c[nH]c3ccccc23)=C1c1c[nH]c2ccccc12 , please.
Result: 1.035

Q: Recorded MV4-11 %inh of Cn1cc(C2=C(c3cn(CCCN=C(N)N)c4ccccc34)C(=O)NC2=O)c2ccccc21 , please.
Result: 6.352

Q: Recorded MV4-11 %inh of O=C(N/N=C/c1coc2ccccc2c1=O)c1cccnc1 , please.
Result: 5.196

Q: Recorded MV4-11 %inh of O=C(Nc1n[nH]c2cc(-c3cc(F)ccc3F)ccc12)C1CC1 , please.
Result: 1.045

====

system: MV4-11; parameters: species or system AML cell lines (8); Primary HTS, single concentration about 10 uM, Cell Titer Glo viability; log10 luminescence, per cent inhibition relative to cycloheximide control; conditions: 72 h, relative to cycloheximide control, log10 luminescence; inhibitor
quantity_kind: MV4-11 %inh
Mention the unit after the number when you answer.

Q: Recorded MV4-11 %inh of Cc1nc2sc3c(N)ncnc3c2c(C)c1C , please.
Result: -2.527%

Q: Recorded MV4-11 %inh of Fc1cccc(COc2ccc(Nc3ncnc4cc(-c5ccc[nH]5)sc34)cc2Cl)c1 , please.
Result: 9.963%

Q: Recorded MV4-11 %inh of CN(C)CC#Cc1cccc(C(=O)c2cnn(-c3ccc(F)cc3)c2N)c1 , please.
Result: 0.9409%

Q: Recorded MV4-11 %inh of O=C(O)P(=O)(O)O [SJ000285291-3, FOSCARNET SODIUM] , please.
Result: 0.7745%

Q: Recorded MV4-11 %inh of Nc1c(C(=O)c2cccc(C#CCN3CCOCC3)c2)cnn1-c1ccc(F)cc1 , please.
Result: 1.084%

Q: Recorded MV4-11 %inh of COc1ccc2ncn(-c3cc(O[C@H](C)c4ccccc4C(F)(F)F)c(C(N)=O)s3)c2c1 , please.
Result: 71.74%

Q: Recorded MV4-11 %inh of O=C1NC(=NCC(CO)c2ccccc2)S/C1=C\c1ccc2ncccc2c1 (stereo not shown) , please.
Result: 53.98%

Q: Recorded MV4-11 %inh of CS(=O)(=O)Nc1ccc(-c2ccc3c(NC(=O)C4CC4)n[nH]c3c2)cc1 , please.
Result: 1.756%

Q: Recorded MV4-11 %inh of CS(=O)(=O)CCNCc1ccc(-c2ccc3ncnc(Nc4ccc(OCc5ccccc5)c(C(F)(F)F)c4)c3c2)o1 , please.
Result: -0.8429%

Q: Recorded MV4-11 %inh of Cn1cc(C2=C(c3ccsc3)C(=O)NC2=O)c2ccccc21 , please.
Result: 4.067%

Q: Recorded MV4-11 %inh of CC(=O)Nc1cccc(-n2c(=O)n(C3CC3)c(=O)c3c(Nc4ccc(I)cc4F)n(C)c(=O)c(C)c32)c1 , please.
Result: 40.11%

Q: Recorded MV4-11 %inh of Nc1nonc1-c1nc2cnccc2n1C1CC1 , please.
Result: 17.34%

Q: Recorded MV4-11 %inh of O=S(=O)(CCOCc1ccc(-c2ccc3ncnc(Nc4ccc(OCc5cccc(F)c5)c(Cl)c4)c3c2)o1)c1ccccc1 , please.
Result: 2.149%

Q: Recorded MV4-11 %inh of COc1cccc(COc2cc(-n3cnc4ccccc43)sc2C(N)=O)c1 , please.
Result: 0.1016%

Q: Recorded MV4-11 %inh of C[C@@H](Oc1cc(-n2cnc3ccc(OCC4CCN(C)CC4)cc32)sc1C(N)=O)c1ccccc1Cl , please.
Result: 68.81%

Q: Recorded MV4-11 %inh of Nc1c(C(=O)c2ccc(C#CCN3CCOCC3)cc2)cnn1-c1ccc(F)cc1 , please.
Result: 6.7%

====

tested on: CMS; set-up: species or system AML cell lines (8); Primary HTS, single concentration about 10 uM, Cell Titer Glo viability; log10 luminescence, per cent inhibition relative to cycloheximide control; conditions: 72 h, relative to cycloheximide control, log10 luminescence; inhibitor
Could you please report measured CMS %inh for the items listed next?
Please give a number only; it is taken to be in %.

Q: Recorded CMS %inh of Cc1[nH]nc2c1N=C(c1ccccc1Cl)c1cc([N+](=O)[O-])ccc1N2 , please.
Result: 91.81

Q: Recorded CMS %inh of CN1CCN(CCc2cccc(C(=O)c3cnn(-c4ccc(F)cc4)c3N)c2)CC1 , please.
Result: 1.769

Q: Recorded CMS %inh of COC(=O)Nc1nc2cc(Oc3ccc(NC(=O)Nc4ccccc4)cc3)ccc2[nH]1 , please.
Result: 99.63

Q: Recorded CMS %inh of O=C1NC(=O)C(c2ccc(Cl)cc2)=C1Nc1ccc(Cl)c(C(=O)O)c1 , please.
Result: -1.744

Q: Recorded CMS %inh of CCS(=O)(=O)c1ccc(OC)c(Nc2nccc(N(C)c3ccc4c(C)n[nH]c4c3)n2)c1 , please.
Result: 9.95

Q: Recorded CMS %inh of Fc1ccc(-c2ncn(C3CCNCC3)c2-c2ccnc(Oc3ccc(Oc4ccccc4)cc3)n2)cc1 , please.
Result: 2.898

Q: Recorded CMS %inh of Cc1ccc(Nc2ccnc(Nc3cccc(C(N)=O)c3)n2)cc1O , please.
Result: -1.873

Q: Recorded CMS %inh of COc1cc[nH]c1/C=C1\C(=O)Nc2ccc(F)c(I)c21 , please.
Result: 4.321

====

tested on: CMS; assay: Secondary dose-response HTS, Cell Titer Glo; type: cell-based, human; conditions: Homo sapiens, HTS, read-out: average effective concentration, CMS
quantity_kind: pEC50
// pEC50: -log10(molar conc.)

Q: Under CMS: pEC50 value of C1=C/COCc2cc(ccc2OCCN2CCCC2)Nc2nccc(n2)-c2cccc(c2)COC/1 ?
Result: 5.70

Q: Under CMS: pEC50 value of Cc1ccc(C(=O)Nc2ccc(CN3CCN(C)CC3)c(C(F)(F)F)c2)cc1C#Cc1cnc2cccnn12 ?
Result: 5.17

Q: Under CMS: pEC50 value of CC(C)[C@H](C(=O)Nc1ccc(C(=O)NO)cc1)c1ccccc1 [(S)-HDAC-42] ?
Result: 6.66

Q: Under CMS: pEC50 value of Nc1ncnc2c1nc(Cl)n2[C@@H]1O[C@H](CO)[C@@H](O)[C@H]1O ?
Result: 5.36

Q: Under CMS: pEC50 value of C[C@@H](Oc1cc(-n2cnc3ccc(CN4CCN(C)CC4)cc32)sc1C(N)=O)c1ccccc1C(F)(F)F ?
Result: 5.00

Q: Under CMS: pEC50 value of C=C1C(=O)O[C@H]2[C@H]1CC/C(C)=C/CC[C@@]1(C)O[C@@H]21 [PARTHENOLIDE] ?
Result: 5.92

Q: Under CMS: pEC50 value of N#CCNC(=O)c1ccc(-c2ccnc(Nc3ccc(N4CCOCC4)cc3)n2)cc1 ?
Result: 6.47

====

Could you please report measured CMS %inh for the items listed next?
system: CMS; parameters: species or system AML cell lines (8); Primary HTS, single concentration about 10 uM, Cell Titer Glo viability; log10 luminescence, per cent inhibition relative to cycloheximide control; conditions: 72 h, relative to cycloheximide control, log10 luminescence; inhibitor
Counter-ions that a name gives are not always drawn.

Q: Recorded CMS %inh of CCC[C@@H]1CC2=CC(=O)CC[C@]2(C)[C@H]2CC[C@@]3(C)[C@@H](CC[C@@]34CCC(=O)O4)[C@H]12 , please.
Result: 0.3867%

Q: Recorded CMS %inh of N#Cc1cccc(C(=O)c2cnn(-c3ccc(F)cc3)c2N)c1 , please.
Result: 0.5963%

Q: Recorded CMS %inh of CN(C)CCOC(C)(c1ccccc1)c1ccccn1 (stereo not drawn) [SJ000285751-7, DOXYLAMINE SUCCINATE] , please.
Result: -0.1312%

Q: Recorded CMS %inh of COc1cccc(-c2c[nH]c3c(N/N=C/c4ccncc4)ncnc23)c1 , please.
Result: 90.74%

Q: Recorded CMS %inh of Nc1c(C(=O)c2cccc(-c3ccncc3)c2)cnn1-c1ccc(F)cc1F , please.
Result: 10.55%

Q: Recorded CMS %inh of CC1(C)O[C@@H]2C[C@H]3[C@@H]4CCC5=CC(=O)C=C[C@]5(C)[C@H]4[C@@H](O)C[C@]3(C)[C@]2(C(=O)CO)O1 [SJ000565170-1, DESONIDE] , please.
Result: 1.425%

Q: Recorded CMS %inh of O=C1NC(=NCC(CO)c2ccccc2)S/C1=C\c1ccc2ncccc2c1 (stereo not drawn) , please.
Result: 4.364%

Q: Recorded CMS %inh of CCC[C@@H]1CC2=CC(=O)CC[C@]2(C)[C@H]2CC[C@@]3(C)[C@@H](CC[C@@]3(O)CCC(=O)O)[C@H]12 , please.
Result: 2.41%

Q: Recorded CMS %inh of O=C1NC(=O)C(N2CCc3ccccc32)=C1c1ccc(Cl)cc1 , please.
Result: -3.009%

Q: Recorded CMS %inh of CCC1(C)CC(=O)NC1=O (stereo not drawn) [SJ000285397-7, ETHOSUXIMIDE] , please.
Result: -0.558%

Q: Recorded CMS %inh of CC(=O)OCC(=O)[C@@]12OC(C)(C)O[C@@H]1C[C@H]1[C@@H]3C[C@H](F)C4=CC(=O)C=C[C@]4(C)[C@@]3(F)[C@@H](O)C[C@@]12C [SJ000285768-4, FLUOCINONIDE] , please.
Result: 8.496%

Q: Recorded CMS %inh of Cc1cc(O)cc(C)c1/C=C/c1cncc(-c2nn[nH]n2)c1 , please.
Result: -2.3%

Q: Recorded CMS %inh of Cc1cccc(C)c1NC(=O)C(C)N (stereo not drawn) [SJ000287515-4, TOCAINIDE HYDROCHLORIDE] , please.
Result: -0.9728%

Q: Recorded CMS %inh of CCn1c(-c2nonc2N)nc2cncc(C(=O)N3CC[C@H](N)C3)c21 , please.
Result: 6.352%

Q: Recorded CMS %inh of O=C1Nc2ccc(C(=O)c3ccco3)cc2C1=Cc1cc(Cl)c(O)c(Cl)c1 , please.
Result: 3.176%

Q: Recorded CMS %inh of COc1cc2c(cc1Nc1nc(Nc3ccsc3C(N)=O)c3cc[nH]c3n1)N(C(=O)CN(C)C)CCC2(C)C , please.
Result: 16.39%

Q: Recorded CMS %inh of COc1cccc(C2=C(c3cn(C)c4ccc(Cl)cc34)C(=O)NC2=O)c1 , please.
Result: 4.874%

Q: Recorded CMS %inh of Cc1ccc(NC(=O)CC2CC2)cc1-c1ccc(C(=O)NCC2CC2)cc1 , please.
Result: 1.599%

Q: Recorded CMS %inh of Nc1c(C(=O)c2cccc(C(O)CO)c2)cnn1-c1ccc(F)cc1 (stereo not drawn) , please.
Result: 3.504%

Q: Recorded CMS %inh of Cc1c[nH]c(/C=C2\C(=O)Nc3ccccc32)c1CCC(=O)O , please.
Result: 2.629%

Q: Recorded CMS %inh of CCc1nn2ncccc2c1-c1ccnc(NC2CC2)n1 , please.
Result: 3.597%

Q: Recorded CMS %inh of CC(=O)Nc1nnc(S(N)(=O)=O)s1 [SJ000285803-7, ACETAZOLAMIDE] , please.
Result: 0.5025%

Q: Recorded CMS %inh of Cc1ccc2c(c1)c(C1=C(c3cn(C)c4ccccc34)C(=O)NC1=O)cn2C , please.
Result: 12.87%

Q: Recorded CMS %inh of CC(C)[C@@H](O)CC[C@@H](C)[C@H]1CC[C@H]2[C@@H]3CC=C4C[C@@H](O)CC[C@]4(C)[C@H]3CC[C@]12C [SJ000561051-1, 24(S)-HYDROXYCHOLESTEROL] , please.
Result: -2.331%

Q: Recorded CMS %inh of COc1cc(F)c(F)c(F)c1C(=O)c1cnc(NC2CCN(S(C)(=O)=O)CC2)nc1N , please.
Result: 23.31%

Q: Recorded CMS %inh of O=C(O)P(=O)(O)O [SJ000285291-3, FOSCARNET SODIUM] , please.
Result: 0.8709%

Q: Recorded CMS %inh of NC(=O)c1cccc(Nc2nccc(Nc3cccc(F)c3)n2)c1 , please.
Result: 5.376%

Q: Recorded CMS %inh of COc1ccc(O)c(C(=O)c2ccc(C(=O)N[C@@H]3CCCNC[C@H]3NC(=O)c3ccncc3)cc2)c1F , please.
Result: 1.516%

Q: Recorded CMS %inh of Nc1nccc(-c2c(-c3ccc(F)cc3)ncn2C2CCC(O)CC2)n1 (stereo not drawn) , please.
Result: 9.299%

Q: Recorded CMS %inh of Clc1ccc(-c2nc3sccn3c2/C=N/OCc2ccc(Cl)c(Cl)c2)cc1 , please.
Result: 0.2267%
